System: FM-MEL-6
Assay: drug sensitivity score (DSS) (DSS (unitless, 0-50 scale)); higher = more sensitive (stronger viability inhibition); extreme values may be limits of the assay
Conditions: 72 h; culture: 2D
In this section we review reported drug sensitivity score values for a set of compounds.
measurement_name: drug sensitivity score

> print(dat)
                         compound.structure  reported.value
1  CCNC(=O)CCC/C=C\C[C@@H]1[C@@H](/C=C/[C@@H](O)CCc2ccccc2)[C@H](O)C[C@@H]1O               0
2  CCNC(=O)C[C@@H]1N=C(c2ccc(Cl)cc2)c2cc(OC)ccc2-n2c(C)nnc21               5
3  COc1cc(C)c(/C=C/C(C)=C/C=C/C(C)=C/C(=O)O)c(C)c1C             1.6
4  O=C(O)c1ccc(CN2CCC(CN[C@@H]3C[C@H]3c3ccccc3)CC2)cc1               0
5  CCN(CC)CCOc1ccc(C(=C(Cl)c2ccccc2)c2ccccc2)cc1             6.3
6                  Nc1nc2[nH]cnc2c(=S)[nH]1             2.6
7  Nc1ncn([C@@H]2O[C@H](CO)[C@@H](O)[C@H]2O)c(=O)n1             4.7

* * *

System: Bowes
Test: drug sensitivity score (DSS) (DSS (unitless, 0-50 scale)); higher = more sensitive (stronger viability inhibition); extreme values may be limits of the assay
Details: 72 h; culture: 2D
In this section we review reported drug sensitivity score values for a set of molecules.
measurement_name: drug sensitivity score

> print(dat)
                                   molecule  reported.value
1  CC1(C)C(C(=O)Nc2ccc(S(=O)(=O)c3ccc(NC(=O)C4C(C)(C)C4(C)C)cc3)cc2)C1(C)C [BRD7116]             0.1
2  COc1cccc2c1C(=O)c1c(O)c3c(c(O)c1C2=O)C[C@@](O)(C(=O)CO)C[C@@H]3O[C@H]1C[C@H](N)[C@@H](O)[C@H](C)O1 [Epirubicin]               4
3  C[C@H]1Oc2cc(cnc2N)-c2c(nn(C)c2C#N)CN(C)C(=O)c2ccc(F)cc21             0.1

* * *

Tested on: FM-MEL-6
Assay: drug sensitivity score (DSS) (DSS (unitless, 0-50 scale)); higher = more sensitive (stronger viability inhibition); extreme values may be limits of the assay
Conditions: 72 h; culture: 2D
In this section we review reported drug sensitivity score values for a set of molecules.
measurement_name: drug sensitivity score

> print(dat)
                                    molecule  reported.value
 1  O=c1ncn2nc(Sc3ccc(F)cc3F)ccc2c1-c1c(Cl)cccc1Cl [Neflamapimod]             0.2
 2  C#Cc1cccc(Nc2ncnc3cc(OCCOC)c(OCCOC)cc23)c1 [Erlotinib]             1.9
 3  CN(C)CCOc1ccc(/C(=C(/CCCl)c2ccccc2)c2ccccc2)cc1 [Toremifene]               6
 4  Nc1cc(F)ccc1NC(=O)/C=C/c1cnn(C/C=C/c2ccccc2)c1 [RGFP966]             1.9
 5  O=C(NOC[C@H](O)CO)c1ccc(F)c(F)c1Nc1ccc(I)cc1F            11.4
 6  Nc1nc(N)c2nc(-c3cccc(O)c3)c(-c3cccc(O)c3)nc2n1 [TG100-115]               1
 7  Nc1cccc2c1CN(C1CCC(=O)NC1=O)C2=O (stereo not drawn) [Lenalidomide]               0
 8  O=C(Nc1ccc2[nH]nc(-c3ccncc3)c2c1)[C@@H]1CCN(CC(=O)N2CCN(c3ccc(-c4ncccn4)cc3)CC2)C1            12.7
 9  Cc1cc(Nc2cc(N3CCN(C)CC3)nc(/C=C/c3ccccc3)n2)n[nH]1 [ENMD-2076]             6.4
10  COc1cc(N2CCN(C)CC2)ccc1Nc1nccc(-c2cn(C)c3cnccc23)n1 [AZ191]               0
11  CNC(=O)c1ccccc1Sc1ccc2c(/C=C/c3ccccn3)n[nH]c2c1 [Axitinib]               0
12  O=C1c2c(O)ccc(O)c2C(=O)c2c(NCCNCCO)ccc(NCCNCCO)c21 [Mitoxantrone]             5.4
13  CC1(C)OCCn2c1nc1c(N3CCOCC3)nc(-c3cnc(N)nc3)nc12 [GDC-0084]             7.8
14  COc1ccc2[nH]cc(/C=C3\C(=O)Nc4ccc(NC(=O)CCN5CCCCC5)cc43)c2c1               5
15  CS(=O)(=O)c1ccc(-c2cnc(N)c(C(=O)Nc3ccccc3)n2)cc1 [VE-821]               0
16  CCN1C(=O)CNc2ncc(-c3ccc(-c4nc[nH]n4)nc3C)nc21 [CC-115]             9.5
17  Nc1ccn([C@@H]2O[C@H](CO)[C@@H](O)[C@@H]2O)c(=O)n1 [Cytarabine]             7.2
18  CC(C)C[C@H](NC(=O)CNC(=O)c1cc(Cl)ccc1Cl)B(O)O [Ixazomib]              17
19  CN1CC[C@@H](NC(=O)Nc2ccc(C#N)cc2)C[C@@H]1c1nc2ccccc2[nH]1 [Glasdegib]               0
20  C=CCn1c(=O)c2cnc(Nc3ccc(N4CCN(C)CC4)cc3)nc2n1-c1cccc(C(C)(C)O)n1 [AZD1775]            12.5
21  CCC(C)(C)C(=O)O[C@H]1C[C@@H](C)C=C2C=C[C@H](C)[C@H](CC[C@@H]3C[C@@H](O)CC(=O)O3)[C@H]21 [Simvastatin]             0.3
22  CN(C)C(=O)c1ccc(S(=O)(=O)c2ccc(NC(=O)[C@@](C)(O)C(F)(F)F)c(Cl)c2)cc1 [AZD7545]               0
23  CN1CCN(c2cc(C(=O)Nc3ccc4c(c3)-c3c(c(C(N)=O)nn3-c3ccc(F)cc3)CC4)c(Cl)cn2)CC1 [PHA 408]             5.2
24  CN(C)C(=O)c1cc2cnc(Nc3ccc(N4CCNCC4)cn3)nc2n1C1CCCC1 [Ribociclib]             1.6
25  O=C(Nc1cccnc1)N1CCC(Cc2cccc(Oc3ccc(C(F)(F)F)cn3)c2)CC1 [PF-3845]               0
26  NC(=O)c1cccc2cn(-c3ccc([C@@H]4CCCNC4)cc3)nc12 [Niraparib]               0
27  COCCOc1cnc2ccn([C@H](C)c3nnc4c(F)cc(-c5cnn(C)c5)cn34)c(=O)c2c1 [AMG-337]               0
28  CONC(=O)c1ccccc1Nc1cc(Nc2cc(C)nn2C(C)C)ncc1Cl               0

* * *

System: FM-MEL-6
Experiment: drug sensitivity score (DSS) (DSS (unitless, 0-50 scale)); higher = more sensitive (stronger viability inhibition); extreme values may be limits of the assay
Settings: 72 h; culture: 2D
Assign condition met to entries whose drug sensitivity score meets or exceeds 4; assign condition not met to the rest.

> print(dat)
                                   compound     classification
1  CC(C)c1cc(C(=O)N2Cc3ccc(CN4CCN(C)CC4)cc3C2)c(O)cc1O [Onalespib]      condition met
2  CCOc1ccn(-c2ccc(F)cc2)c(=O)c1C(=O)Nc1ccc(Oc2ccnc(N)c2Cl)c(F)c1  condition not met
3  CNc1ncc2cc(-c3cc(NC(=O)NCCC(C)(C)C)c(F)cc3C)c(C)nc2n1      condition met
4  Cc1ccc(C(=O)Nc2cccc(C(F)(F)F)c2)cc1Nc1nc(-c2cccnc2)nc2c1cnn2C [NVP-BHG712]  condition not met
5  COc1c(OCCCN2CCOCC2)ccc2c1N=C(NC(=O)c1cnc(N)nc1)N1CCN=C21 [Copanlisib]      condition met
6  Nc1ccccc1NC(=O)c1ccc(CNc2nccc(-c3cccnc3)n2)cc1 [Mocetinostat]      condition met
7  C=CC(=O)Nc1cc2c(Nc3ccc(F)c(Cl)c3)ncnc2cc1OCCCN1CCOCC1 [Canertinib]      condition met
8  O=C(c1ccc(F)c(F)c1Nc1ccc(I)cc1F)N1CC(O)([C@@H]2CCCCN2)C1 [Cobimetinib]      condition met
9  C[C@H](Nc1ncnc2nc[nH]c12)c1cc2cccc(Cl)c2c(=O)n1-c1ccccc1 [Duvelisib]  condition not met

* * *

System: FM-MEL-6
Assay: drug sensitivity score (DSS) (DSS (unitless, 0-50 scale)); higher = more sensitive (stronger viability inhibition); extreme values may be limits of the assay
Conditions: 72 h; culture: 2D
measurement_name: drug sensitivity score

> print(dat)
                                    compound  reported.value
 1  Cn1ncc(Cl)c1-c1cc(C(=O)N[C@H](CN)Cc2cccc(F)c2)sc1Cl             2.3
 2  C=CC(=O)Nc1cccc(Oc2nc(Nc3ccc(N4CCN(C)CC4)cc3)nc3ccsc23)c1               0
 3  C[C@@H]1COCCN1c1cc(C2([S@](C)(=N)=O)CC2)nc(-c2cc[nH]c3nccc2-3)n1               7
 4  CC(C)N(C[C@H]1O[C@@H](n2cnc3c(N)ncnc32)[C@H](O)[C@@H]1O)[C@H]1C[C@@H](CCc2nc3cc(C(C)(C)C)ccc3[nH]2)C1               0
 5  CCCCC(=O)OCC(=O)[C@]1(O)Cc2c(O)c3c(c(O)c2[C@@H](O[C@H]2C[C@H](NC(=O)C(F)(F)F)[C@H](O)[C@H](C)O2)C1)C(=O)c1c(OC)cccc1C3=O             9.2
 6  NC(=O)/C(=C/n1cnc(-c2cc(C(F)(F)F)cc(C(F)(F)F)c2)n1)c1cncnc1 [Eltanexor]            11.8
 7  CC(=O)c1cnc2ccc(-c3cc(Cl)c(O)c(Cl)c3)nc2c1N[C@H]1CC[C@H](CN(C)C)CC1               8
 8  CCn1cc(-c2ccnc3[nH]c(-c4cccc(CN(C)C)c4)cc23)c(-c2ccc(NC(=O)N(C)C)cc2)n1               0
 9  Cc1ncc(-c2ccnc(Nc3ccc(S(C)(=O)=O)cc3)n2)n1C(C)C               7
10  O=C(c1cc(Cc2n[nH]c(=O)c3ccccc23)ccc1F)N1CCN(C(=O)C2CC2)CC1               0
11  CCCCCCCCCCCCCCCCOP(=O)([O-])OCC[N+](C)(C)C             1.2
12  CN1CC[C@H](c2c(O)cc(O)c3c(=O)cc(-c4ccccc4Cl)oc23)[C@H](O)C1            17.7
13  Cc1[nH]nc(C(F)(F)F)c1Cc1sc2c(c1C(=O)N1C[C@](C)(O)CO1)c(=O)n(C)c(=O)n2C(C)C             0.3
14  CC(C)(C#N)c1cc(Cn2cncn2)cc(C(C)(C)C#N)c1               0
15  CC[C@H](C)C(=O)O[C@H]1C[C@H](O)C=C2C=C[C@H](C)[C@H](CC[C@@H](O)C[C@@H](O)CC(=O)O)[C@H]21               0
16  Nc1cc(C(F)(F)F)c(-c2cc(N3CCOCC3)nc(N3CCOCC3)n2)cn1               6
17  CNCc1ccc(-c2[nH]c3cc(F)cc4c3c2CCNC4=O)cc1             0.7
18  CN(C)CCCOc1ccc(-c2ccc3ncc4c(c3c2)n(C2CCOCC2)c(=O)n4C)cn1               0
19  CCN(CC)CCNC(=O)c1c(C)[nH]c(/C=C2\C(=O)Nc3ccc(-c4csc(-c5ccccc5)n4)cc32)c1C             8.8
20  CNc1nc(Nc2cn(C(C)(C)C#N)nc2C)ncc1C(F)(F)F               0

src = the supplement of paper PMC8633005
